tested on: LOC_OS04G57630-cb004; assay: thermal shift delta Tm vs DMSO control; higher = stronger stabilization (binding); settings: 12.5 µM; protein concentration 2 µM;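 note: purified Escherichia coli-expressed rice kinase domain construct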
Catalogue of compounds with associated thermal shift delta Tm

| compound | experimentalSystem | thermal shift delta Tm |
| --- | --- | --- |
| O=c1ccc2ccc(O)c(O)c2o1 [Daphnetin] | LOC_OS04G57630-cb004 | 0.17 °C |
| CCN(C)S(=O)(=O)Nc1ccc(F)c(C(=O)c2c[nH]c3ncc(-c4cnc(C5CC5)nc4)cc23)c1F | LOC_OS04G57630-cb004 | 1.47 °C |
| CCc1cccc(CC)c1NC(=O)N1Cc2[nH]nc(NC(=O)c3ccc(N4CCN(C)CC4)cc3)c2C1 | LOC_OS04G57630-cb004 | 0.89 °C |
| Cc1nc2c(-c3cnc(N)nc3)nc(N3CCOCC3)nc2n1C(C)C | LOC_OS04G57630-cb004 | 0.5 °C |
| CCCCCCCCCCCCCCCCOP(=O)([O-])OCC[N+](C)(C)C [Miltefosine] | LOC_OS04G57630-cb004 | -0.37 °C |
| CCn1c(-c2nonc2N)nc2c(C#CC(C)(C)O)ncc(OC[C@H]3CCCNC3)c21 | LOC_OS04G57630-cb004 | 0.06 °C |
| Cn1cnc2c(F)c(Nc3ccc(Br)cc3F)c(C(=O)NOCCO)cc21 | LOC_OS04G57630-cb004 | 0.45 °C |
| COc1cc2c(c(OC)c1OC)-c1c(cc3c(c1OC)OCO3)CC(C)C(C)C2 (stereo not given) [Schisandrin B (Sch B)] | LOC_OS04G57630-cb004 | 0.17 °C |
| N#Cc1c(Oc2ccc(F)c(NC(=O)Cc3cccc(C(F)(F)F)c3)c2)ccc2nc(NC(=O)C3CC3)sc12 | LOC_OS04G57630-cb004 | 0.09 °C |
| CC(C)(C)c1cc(NC(=O)Nc2ccc(Oc3ccnc4[nH]c(=O)cnc34)cc2F)n(-c2ccccc2)n1 | LOC_OS04G57630-cb004 | 10.3 °C |

* * *

tested on: LOC_OS02G14120-cb001; test: thermal shift delta Tm vs DMSO control; higher = stronger stabilization (binding); settings: 12.5 µM; protein concentration 2 µM
property: thermal shift delta Tm (°C)

| molecule | unitTag | quantitativeReadout |
| --- | --- | --- |
| CN1CCN(c2ccc3nc(-c4c(N)c5c(F)cccc5[nH]c4=O)[nH]c3c2)CC1 [Dovitinib (TKI-258, CHIR-258)] | °C | 4.01 |
| CC[C@@H]1C(=O)N(C)c2cnc(Nc3ccc(C(=O)N[C@H]4CC[C@H](N5CCN(CC6CC6)CC5)CC4)cc3OC)nc2N1C(C)C | °C | -0.05 |
| O=C(O)c1ccc(Nc2ncc3c(n2)-c2ccc(Cl)cc2C(c2c(F)cccc2F)=NC3)cc1 | °C | 0.88 |

* * *

test system: LOC_OS03G27990-cb004; test: thermal shift delta Tm vs DMSO control; higher = stronger stabilization (binding); conditions: 12.5 µM; protein concentration 2 µM
Please note: T applies when thermal shift delta Tm is 0.3 °C or greater, and F applies otherwise.

| molecule | experimentalSystem | className |
| --- | --- | --- |
| CCC[C@H](NC(=O)/C(C#N)=C/c1cccc(Br)n1)c1ccccc1 [Degrasyn (WP1130)] | LOC_OS03G27990-cb004 | F |
| Cc1cc(NC(=O)c2cccc(NC(=O)/C=C/CN(C)C)c2)ccc1Nc1nccc(-c2cccnc2)n1 | LOC_OS03G27990-cb004 | T |
| C#Cc1cccc(Nc2ncnc3cc(OC)c(OCCCCCCC(=O)NO)cc23)c1 | LOC_OS03G27990-cb004 | F |
| CS(=O)(=O)N1CCc2c(-c3cnc(N)nc3)nc(N3CCOCC3)nc21 | LOC_OS03G27990-cb004 | F |
| CCS(=O)(=O)N1CCN(c2ccc(Nc3ncc(C(N)=O)c(NC4CC4)n3)cc2)CC1 | LOC_OS03G27990-cb004 | T |
| C[C@H](CN(C)C)Oc1nc(Nc2cc3cccc(Cl)c3cn2)cnc1C#N | LOC_OS03G27990-cb004 | T |

* * *

Catalogue of compounds with associated thermal shift delta Tm
tested on: LOC_OS02G54510-cb004; assay: thermal shift delta Tm vs DMSO control; higher = stronger stabilization (binding); settings: 12.5 µM; protein concentration 2 µM

| compound | experimentalSystem | unitTag | thermal shift delta Tm |
| --- | --- | --- | --- |
| CC(=O)Nc1cccc(-n2c(=O)n(C3CC3)c(=O)c3c(Nc4ccc(I)cc4F)n(C)c(=O)c(C)c32)c1 | LOC_OS02G54510-cb004 | °C | -0.04 |
| COc1cc2c(Nc3ccc(NC(=O)c4ccccc4)cc3)ncnc2cc1OCCCN1CCOCC1 | LOC_OS02G54510-cb004 | °C | 0.37 |
| O=c1ncn2nc(Sc3ccc(F)cc3F)ccc2c1-c1c(Cl)cccc1Cl | LOC_OS02G54510-cb004 | °C | -0.07 |
| NC1(Cc2ccc(Cl)cc2)CCN(c2ncnc3[nH]ccc23)CC1 | LOC_OS02G54510-cb004 | °C | 0.26 |
| O=c1[nH]nc(Sc2ncc([N+](=O)[O-])s2)n1-c1ccc2c(c1)OCCO2 | LOC_OS02G54510-cb004 | °C | -0.1 |
| NC(=O)c1cnc(N[C@@H]2CCCC[C@@H]2N)nc1Nc1cccc(-n2nccn2)c1 | LOC_OS02G54510-cb004 | °C | 2.55 |
| CCC(=O)Nc1cccc(Oc2nc(Nc3ccc(N4CCN(C)CC4)cc3OC)ncc2Cl)c1 | LOC_OS02G54510-cb004 | °C | -0.03 |
| COc1cc(Nc2ncc(F)c(Nc3ccc4c(n3)N(COP(=O)(O)O)C(=O)C(C)(C)O4)n2)cc(OC)c1OC [R788 (Fostamatinib) Disodium] | LOC_OS02G54510-cb004 | °C | 0.47 |
| C[C@@H](NC(=O)c1ncnc(N)c1Cl)c1ncc(C(=O)Nc2cc(C(F)(F)F)c(Cl)cn2)s1 | LOC_OS02G54510-cb004 | °C | 6.43 |
| CCCS(=O)(=O)Nc1ccc(F)c(C(=O)c2c[nH]c3ncc(Cl)cc23)c1F | LOC_OS02G54510-cb004 | °C | 1.14 |
| Cc1cccc(CC(=O)N2CCc3c2ccc(-c2cn(C)c4ncnc(N)c24)c3F)n1 | LOC_OS02G54510-cb004 | °C | 0.61 |
| NC(=O)c1cnc2[nH]ccc2c1N[C@@H]1[C@@H]2CC3C[C@H]1C[C@@](O)(C3)C2 | LOC_OS02G54510-cb004 | °C | 2.49 |
| C=CC(=O)N1CCN(CCCn2c(=O)c(-c3c(Cl)c(OC)cc(OC)c3Cl)cc3cnc(NC)nc32)CC1 | LOC_OS02G54510-cb004 | °C | 0.21 |

* * *

Tested on: LOC_OS04G38480-cb003
Sequence (whole entry): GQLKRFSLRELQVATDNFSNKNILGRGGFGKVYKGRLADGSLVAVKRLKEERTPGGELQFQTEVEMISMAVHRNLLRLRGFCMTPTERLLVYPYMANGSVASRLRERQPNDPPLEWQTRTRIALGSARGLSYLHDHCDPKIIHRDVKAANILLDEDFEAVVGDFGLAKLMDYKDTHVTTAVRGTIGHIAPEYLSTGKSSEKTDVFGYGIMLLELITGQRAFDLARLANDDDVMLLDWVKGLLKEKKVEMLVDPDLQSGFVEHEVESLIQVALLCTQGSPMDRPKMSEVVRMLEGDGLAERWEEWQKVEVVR
Test: thermal shift delta Tm vs DMSO control; higher = stronger stabilization (binding)
Details: 12.5 µM; protein concentration 2 µM
property: thermal shift delta Tm (°C)

| compound | experimentalSystem | property | quantitativeReadout |
| --- | --- | --- | --- |
| O=C1NC(=O)C(=Cc2ccc(-c3ccc(F)cc3)o2)S1 (stereo in doubt) | LOC_OS04G38480-cb003 | thermal shift delta Tm | 0.83 |
| CC(C)[C@H](CO)Nc1nc(Nc2cccc(Cl)c2)c2ncn(C(C)C)c2n1 [Purvalanol A] | LOC_OS04G38480-cb003 | thermal shift delta Tm | 1.87 |
| Cc1cc(CS(=O)(=O)c2ccccc2)cc(OCc2ccc(CN3CCC[C@@H]3CO)cc2)c1 | LOC_OS04G38480-cb003 | thermal shift delta Tm | 0.83 |
| Cc1c[nH]c(/C=C2\C(=O)Nc3ccccc32)c1CCC(=O)O | LOC_OS04G38480-cb003 | thermal shift delta Tm | 3.46 |
| C=CC(=O)Nc1cccc(Nc2nc(Nc3ccc(Oc4ccnc(C(=O)NC)c4)cc3)ncc2F)c1 | LOC_OS04G38480-cb003 | thermal shift delta Tm | 3.42 |
| COCCOc1cnc2ccn([C@H](C)c3nnc4c(F)cc(-c5cnn(C)c5)cn34)c(=O)c2c1 | LOC_OS04G38480-cb003 | thermal shift delta Tm | 0.41 |
| Nc1nc(Nc2ccc(S(N)(=O)=O)cc2)nn1C(=O)c1c(F)cccc1F | LOC_OS04G38480-cb003 | thermal shift delta Tm | 2.97 |
| CN(C)Cc1cccc(N=C(c2ccccc2)c2c(O)[nH]c3cc(C(=O)N(C)C)ccc23)c1 | LOC_OS04G38480-cb003 | thermal shift delta Tm | 0.55 |
| CC(C)Nc1cc(-c2c[nH]c(C(=O)N[C@H](CO)c3cccc(Cl)c3)c2)c(Cl)cn1 | LOC_OS04G38480-cb003 | thermal shift delta Tm | 1.63 |
| C[C@H]1CNC(=O)c2cnn3ccc(nc23)N[C@H](C)c2cc(F)ccc2O1 | LOC_OS04G38480-cb003 | thermal shift delta Tm | 3.37 |
| Nc1nccc(Oc2ccc(NC(=O)c3c[nH]cc(-c4ccc(F)cc4)c3=O)cc2F)c1Cl | LOC_OS04G38480-cb003 | thermal shift delta Tm | 2.79 |
| O=C(O[C@@H]1Cc2c(O)cc(O)cc2O[C@@H]1c1cc(O)c(O)c(O)c1)c1cc(O)c(O)c(O)c1 [(-)-Epigallocatechin Gallate] | LOC_OS04G38480-cb003 | thermal shift delta Tm | 2.43 |
| Cc1c[nH]c2nc(Nc3ccc(N4CCN(C)CC4)c(F)c3)nc(-c3cccc(CC#N)c3)c12 | LOC_OS04G38480-cb003 | thermal shift delta Tm | 6.06 |
| COc1cc(N2CCC(N)CC2)ccc1Nc1ncc(Cl)c(-c2c[nH]c3ccccc23)n1 | LOC_OS04G38480-cb003 | thermal shift delta Tm | 4.68 |
| CNC(=O)CN1CCC(Oc2cc3c(Nc4cccc(Cl)c4F)ncnc3cc2OC)CC1 [Sapitinib (AZD8931)] | LOC_OS04G38480-cb003 | thermal shift delta Tm | 0.11 |
